Assignment: determine reported growth inhibition for the given compounds.
Assay: NCI Yeast Anticancer Drug Screen. Data for the rad50 strain (AID 155);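 further: 0% = growth of vehicle-only cultures of the same strain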
Settings: S. cerevisiae rad50 strain growth inhibition; at 50.0 µM; hits give high values
The panel holds about 79,000 compounds, 15% with a hit somewhere; the sample as a whole holds those more often.
One number for each entry, in %.

The cases that follow already have their growth inhibition on record.
C/C=C/c1ccc2oc(-c3ccc(OC4OC(C)C(O)C(O)C4O)cc3)c(C)c2c1 (stereo not given): 98.9
O=C(NCc1ccncc1)Nc1ccc(Cc2ccc(NC(=O)NCc3ccncc3)cc2)cc1: -8.05
Fc1c(F)c(F)c(CSc2nc3ccccc3[nH]2)c(F)c1F: -42
COc1ccc(NS(=O)c2ccccc2OC)cc1 (stereo not given): 2.7

Now look at this entry.
## Task Would you kindly share the measured growth inhibition for O=S1(=O)OCCOS(=O)(=O)C1I ?
## Result -8.1
